SYSTEM_UNDER_TEST: Aldo-keto reductase family 1 member B10 (Homo sapiens)
Sequence (O60218 whole entry): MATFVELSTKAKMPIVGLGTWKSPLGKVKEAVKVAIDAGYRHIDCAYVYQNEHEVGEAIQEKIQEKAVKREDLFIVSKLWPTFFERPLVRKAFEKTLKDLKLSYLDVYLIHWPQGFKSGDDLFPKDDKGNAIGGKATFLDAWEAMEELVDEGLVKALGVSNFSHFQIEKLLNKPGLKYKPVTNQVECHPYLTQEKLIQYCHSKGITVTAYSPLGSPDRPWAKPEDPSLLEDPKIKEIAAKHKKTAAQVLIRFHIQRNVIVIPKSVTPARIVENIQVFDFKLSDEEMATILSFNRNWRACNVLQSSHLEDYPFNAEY
METHOD_NOTES: IC50-Activity Assay (AR)
EXPERIMENTAL_PARAMETERS: pH 7
ASSAY_READOUT: IC50 (µM)
Answers are plain numbers, in µM.

COMPOUND	ASSAY_READOUT	RECORDED_RESULT
O=C(O)COc1cc(Cl)ccc1C(=O)NCc1ccc(Br)cc1 [MK181]	IC50	4.5
O=C(O)COc1cc(Cl)ccc1C(=O)NCc1c(F)c(F)c(Br)c(F)c1F [MK319]	IC50	7
O=C(O)COc1cc(Cl)ccc1C(=O)NCc1c(Br)c(Br)c(Br)c(Br)c1Br	IC50	0.08
O=C(O)COc1cc(Cl)ccc1C(=O)NCc1c(Br)cc(Br)cc1Br	IC50	1

Could you now look at the following compound, please?
Q: Identify IC50 associated with the compound O=C(O)COc1cc(Cl)ccc1C(=O)NCc1ccc(Br)cc1F [IDD388]
Result: 4.4

Entry source: BindingDB's records for doi:10.1021/acschembio.6b00382
